These data points were gathered from patent US10946092.

MEASURED TARGET: T1, recombinant human LAG3(ECD)-his (Sino Biological, Cat #: 16498-H08H) (human, UniProt P18627 23-450)
T1 construct: extracellular domain; Bought protein; not shown: his tag
T1 sequence (looked up): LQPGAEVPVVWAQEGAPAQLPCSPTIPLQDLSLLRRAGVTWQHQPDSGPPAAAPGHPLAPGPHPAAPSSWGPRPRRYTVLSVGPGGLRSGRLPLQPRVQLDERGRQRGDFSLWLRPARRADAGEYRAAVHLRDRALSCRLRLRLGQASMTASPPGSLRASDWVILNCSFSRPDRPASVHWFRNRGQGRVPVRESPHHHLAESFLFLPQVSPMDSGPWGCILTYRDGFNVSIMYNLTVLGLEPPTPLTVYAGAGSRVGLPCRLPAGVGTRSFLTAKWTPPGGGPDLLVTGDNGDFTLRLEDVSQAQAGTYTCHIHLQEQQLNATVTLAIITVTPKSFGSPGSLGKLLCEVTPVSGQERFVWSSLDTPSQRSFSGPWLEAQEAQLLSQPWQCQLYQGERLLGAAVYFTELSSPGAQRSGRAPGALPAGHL
EXPERIMENT DESCRIPTION: SPR (BIAcore 8K), human LAG3(ECD)-his coupled to chip, antibody injected, 1:1 Langmuir

- BINDER: "chimeric 101F4 antibody (antibody, human IgG4 S228P, kappa, V domains shown, Mouse variable regions on human IgG4 (S228P)/kappa constant regions; also called 101F4-CM) VH: EVQLEQSGAELVRPGASVTLSCKASGYTFTDYEMHWVKQTPVYGLEWMGAIDPETGGIVYNQRFKGKAILTADKSSSTAYMELRSLTSEDSAVYYCTGAGWGYWGQGTTLTVSS VL: DIVITQSPSSMYASLGERVTITCKASQDINSYLSWFQQKPGKSPKTLIYRANRLLDGVPSRFSGSGSGQDYSLTISSLEFEDMGLYYCLQYDEFPFTFGSGTKLEIKR"
  Kd, nM: 0.833
- BINDER: "chimeric 134G10 antibody (antibody, human IgG4 S228P, kappa, V domains shown, Mouse variable regions on human IgG4 (S228P)/kappa constant regions; also called 134G10-CM) VH: EVQLVESGGDLVKPGGSLKLSCAASGFTFSSFGMSWVRQTPDKRLEWVGIISSGGTYTFYPDILKGRFTISRDNAKNTLYLQMSSLKSEDTAMYYCARVYSDYDGRFDYWGQGTTLTVSS VL: DIVMTQSPSSLSVSAGEKVTMNCKSSQSLLNSGNQKNYLAWYQQKPGQPPKLLIYGASTRESGVPDRFTGSGSGTDFTLTISSVQAEDLAVYYCQNDHSYPLTFGAGTKLELKR"
  Kd, nM: 0.737
- BINDER: "humanized antibody 101F4H2L2 (antibody, human IgG4 S228P, kappa, V domains shown, Human IgG4 (S228P)/kappa) VH: QVQLVQSGAEVKKPGASVKVSCKVSGYTFTDYEMHWVRQAPGKGLEWMGAIDPETGGIVYNQRFKGRVTLTADTSTDTAYMELSSLRSEDTAVYYCATAGWGYWGQGTTVTVSS VL: DIQMTQSPSSLSASVGDRVTITCKASQDINSYLSWYQQKPGKAPKLLIYRANRLLDGVPSRFSGSGSGQDYTLTISSLQPEDFATYYCLQYDEFPFTFGQGTKLEIKR"
  Kd, nM: 414
- BINDER: "humanized antibody 134G10H2L3 (antibody, human IgG4 S228P, kappa, V domains shown, Human IgG4 (S228P)/kappa) VH: EVQLVESGGGLVKPGGSLRLSCAASGFTFSSFGMSWVRQAPGKRLEWVSIISSGGTYTFYPDILKGRFTISRDNAKNSLYLQMNSLRAEDTAVYYCARVYSDYDGRFDYWGQGTLVTVSS VL: DIVMTQSPSSLAVSLGERATINCKSSQSLLNSGNQKNYLAWYQQKPGQPPKLLIYGASTRESGVPDRFTGSGSGTDFTLTISSLQAEDVAVYYCQNDHSYPLTFGAGTKLEIKR"
  Kd, nM: 0.262
